- Tested on: SK-OV-3 ovarian
- procedure_details: NCI tumour cell line growth inhibition, 48 h
readout_label: TGI

Query string: Find the recorded TGI belonging to "COc1cccc(-c2nc(N)c(C#N)c3c2CCS(=O)(=O)c2ccc(C)cc2-3)c1" and report it.
Result string: > 100 µM

* * *

Measured TGI values are reported for all entries that follow.
- Test system: MALME-3M melanoma
- procedure_details: NCI tumour cell line growth inhibition, 48 h

Example entries and their recorded answers appear below.
C[C@]12CC/C(=N\OCCN3CCCC3)C=C1CCC1C2CC[C@@]2(C)C1CC[C@]2(C)O (some centres not stated) : 18.7 µM
O=C1C2C3C=CC(C2C(=O)N1CN1CCOCC1)C1C2C(=O)N(CN4CCOCC4)C(=O)C2C31 (configuration not stated) : > 100 µM

Query string: Reported TGI, molecule "CC1(C)COC(c2cccc(C(=O)c3ccccc3)c2)=N1" : ____
Result string: > 100 µM

Query string: Fill blank: measured TGI of the molecule "CCc1cccc(CC)c1Nc1nc(-c2ccccc2-c2ccccc2)cs1" is ____.
Result string: > 100 µM

Query string: Consider the molecule O=C1NCC2(CCN(CC3COc4ccccc4O3)CC2)N1c1ccccc1 (configuration not stated) and give its measured TGI.
Result string: > 100 µM

Query string: Request the reported TGI associated with "NC(N)=NS(=O)(=O)c1ccc(NCc2cccc3c(=O)c4ccc(Cl)cc4oc23)cc1"
Result string: > 19.2 µM

Query string: // query TGI value for entry "COC(=O)/C=C1/OC(c2ccccc2)=C(Br)C1=O"
Result string: > 100 µM

Query string: TGI lookup needed for "O=[N+]([O-])c1cc2c(ccc3ccccc32)o1" , thanks.
Result string: 0.368 µM

Query string: Name the reported TGI value associated with the molecule "CN(C)Cc1nsc(N(C)C)n1"
Result string: > 100 µM

Query string: Fill blank: measured TGI of the molecule "C=CCNC(=S)NC=C(C(N)=O)C(N)=O" is ____.
Result string: > 100 µM

Query string: # input molecule: "COc1cc2c(cc1OCCCN1CCN(CCCOc3cc4c(cc3OC)C(=O)N3C[C@H](F)C[C@H]3C=N4)CC1)N=C[C@@H]1C[C@@H](F)CN1C2=O" ; wanted: its TGI
Result string: 0.154 µM

Query string: What value of measured TGI is listed for "COc1cc2c(cc1OCCCN1CCOCC1)N=C[C@@H]1CCCN1C2=O" ?
Result string: 33.6 µM

Query string: I would be grateful if you could share the reported TGI for COc1ccc(-c2cc(-c3ccco3)c(C#N)c(=O)n2C2OC(COC(C)=O)C(OC(C)=O)C(OC(C)=O)C2OC(C)=O)cc1 (configuration not stated) .
Result string: > 100 µM

Query string: If you can, please state the reported TGI value of "NC(N)=N/N=C/c1c(Cl)nc2n1CCS2" .
Result string: > 100 µM

Query string: What TGI value was documented for this molecule, "CCN1C(c2ccccc2)=CC(c2ccccc2)(C(Cl)(Cl)Cl)C=C1c1ccccc1" ?
Result string: 24 µM

* * *

- Test system: SK-MEL-5 melanoma
- procedure_details: NCI tumour cell line growth inhibition, 48 h
readout_label: TGI (µM)
The reply should contain only the number, in µM.

Below: 3 compounds and their reported TGI.
Cc1ccccc1-n1c(=O)nc2n(-c3ccc(C(C)(C)C)cc3)c3ccccc3cc-2c1=O : 28.5
O=C1/C(=C/c2ccc([N+](=O)[O-])cc2)Oc2cc(O)ccc21 : 48
COc1cc2c(/C=C3/C(=O)Nc4cc(C)c(O)cc43)c(Cl)[nH]c2cc1C : 12.5

Query string: Fill blank: measured TGI of the compound Nc1ccccc1SC(CC(=O)c1ccccc1)c1c(Cl)cccc1Cl (stereo unspecified) is ____.
Result string: 21.2

Query string: I have this compound here, C[C@]12CC/C(=N\OCCN3CCCC3)C=C1CCC1C2CC[C@@]2(C)C1CC[C@]2(C)O (stereo partly specified) , and I need its recorded TGI.
Result string: 29.9
